assayed_target: SARS-CoV-2 3CLpro (Severe acute respiratory syndrome coronavirus 2, UniProt P0DTD1)
test_summary: biochemical
Format: biochemical
test_conditions: 4 h, read-out: Replicate_1 (LOPAC_screen_w_protease)
Structures can show the parent of a compound that is named as a salt.
Respond with YES for inhibition at 5 µM values of 2% and above, NO for values below.

>>> print(df.to_string())
                                   compound  class
0  Clc1cccc(Cl)c1N=C1NCCN1 [Clonidine hydrochloride]     NO
1  c1ccc2c(c1)OCC(C1=NCCN1)O2 (centres unmarked) [Idazoxan hydrochloride]     NO

Exam item: Record COC(=O)[C@H]1[C@H]2C[C@@H]3c4[nH]c5cc(OC)ccc5c4CCN3C[C@H]2C[C@@H](OC(=O)c2cc(OC)c(OC)c(OC)c2)[C@@H]1OC ; criterion: inhibition at 5 µM no lower than 2%. Met?
Marked response: YES

Exam item: Reported inhibition at 5 µM reaches at least 2% for NCCCCN [Putrescine dihydrochloride] ?
Marked response: YES

Exam item: Determine whether measured inhibition at 5 µM meets or exceeds 2% for Cn1cnc([N+](=O)[O-])c1Sc1ncnc2nc[nH]c12
Marked response: NO

###

inhibition at 5 µM for assorted compounds
assayed_target: SARS-CoV-2 3CLpro (Severe acute respiratory syndrome coronavirus 2, UniProt P0DTD1)
test_summary: biochemical
Type: biochemical
test_conditions: 4 h, sheet LOPAC_screen_w_protease; primary screen with protease, replicate 1; read-out: Replicate_1
Note: unit % is implicit; provide only the numeric part.

Some entries whose results are on file:
In [3]: df
Out[3]:
                                   compound                            assayed_target  measurement
0                Cn1c(=O)c2c(ncn2C)n(C)c1=O  SARS-CoV-2 3CLpro (Severe acute respiratory syndrome coronavirus 2, UniProt P0DTD1)         1.98
1  CN1CCN(CCCN2c3ccccc3Sc3ccc(Cl)cc32)CC1 [Prochlorperazine dimaleate]  SARS-CoV-2 3CLpro (Severe acute respiratory syndrome coronavirus 2, UniProt P0DTD1)         4.42
2  CC1=C(C)C(=O)C(CCCCC#CCCCC#CCO)=C(C)C1=O  SARS-CoV-2 3CLpro (Severe acute respiratory syndrome coronavirus 2, UniProt P0DTD1)         3.11
3  CC(C)COC(=O)OCN1C(=O)CN(CCN2CC(=O)N(COC(=O)OCC(C)C)C(=O)C2)CC1=O  SARS-CoV-2 3CLpro (Severe acute respiratory syndrome coronavirus 2, UniProt P0DTD1)         2.79
4  C[C@H](O)C(=O)C1=Nc2c(nc(N)[nH]c2=O)NC1 [Sepiapterin]  SARS-CoV-2 3CLpro (Severe acute respiratory syndrome coronavirus 2, UniProt P0DTD1)         2.59

So, NC(=Nc1ccccc1)NC(=O)c1nc(Cl)c(N)nc1N [Phenamil methanesulfonate] ? Its inhibition at 5 µM was 2.05

For reference, reported inhibition at 5 µM for OC[C@H]1O[C@@H](n2cnc3c(NC4CCCC4)ncnc32)[C@H](O)[C@@H]1O stands at 1.59

###

Catalogue of Replicate_1 values
assayed_target: UniProt P0DTD1
test_summary: biochemical
Type: biochemical
Design: unit not given here
test_conditions: sheet LOPAC_screen_w_protease; LOPAC1280 at 5 µM; replicate 1

Worked cases, answers included:
>>> df
                                   compound  measurement
0    Cl.NCC(O)C1CCCCCCC1 (centres unmarked)       2.0547
1  CCCN1CCC[C@H](c2cccc(O)c2)C1.Cl [R(+)-3PPP hydrochloride]        1.657
2  CC(N)(Cc1ccc(O)cc1)C(=O)O (racemic) [DL-alpha-Methyl-p-tyrosine]       0.7226

In plain terms, CCN(CC)C(=O)c1ccc(O)c(OC)c1 [Vanillic acid diethylamide] has a documented Replicate_1 of 1.198

Short answer for COc1cc(C(O)C(=O)O)ccc1O (racemic) [(±)-Vanillylmandelic acid] : Replicate_1 was 2.648

###

Below: a set of entries, each annotated with reported Replicate_1.
assayed_target: SARS-CoV-2 3CLpro (Severe acute respiratory syndrome coronavirus 2)
test_summary: biochemical
Format: biochemical
Parameters: unit not given here
test_conditions: sheet LOPAC_screen_w_protease; primary screen with protease, 5 µM; replicate 1
Number only, no unit.

Take a look at these entries with their results.
>>> print(df.to_string())
                                   compound  readout_kind  measurement
0  CC(=O)OC(C)C[N+](C)(C)C.[Cl-] (stereo not drawn) [Acetyl-beta-methylcholine chloride]   Replicate_1        1.198
1  COc1ccc(CCNC[C@H](O)c2ccc(O)cc2)cc1OC [R(-)-Denopamine]   Replicate_1      -0.1092
2  Br.C[N+](C)(C)CCCCCNCC12CC3CC(CC(C3)C1)C2.[Br-]   Replicate_1       0.5263
3  Br.CCCN(CCC)[C@@H]1CCc2cccc(O)c2C1 [R-(+)-8-Hydroxy-DPAT hydrobromide]   Replicate_1       2.2019
4  COC(=O)c1c(C)[nH]c(C)c1C(=O)c1ccccc1Cc1ccccc1   Replicate_1        1.679

Now examine the next entry.
Form: compound = CCc1ccccc1OC[C@@H](O)CN[C@H]1CCCc2ccccc21.O=C(O)C(=O)O [SR 59230A oxalate] ; Replicate_1 = 1.088

###

assayed_target: SARS-CoV-2 3CLpro (Severe acute respiratory syndrome coronavirus 2)
test_summary: biochemical
Assay type: biochemical
test_conditions: 4 h, sheet LOPAC_screen_w_protease; LOPAC1280 primary screen at 5 µM, with protease; replicate 1; read-out: Replicate_1
Structures can show the parent of a compound that is named as a salt.
The compounds listed here are annotated with their inhibition at 5 µM.
Answer as a quantity: numeral, then unit.

>>> print(df.to_string())
                                   compound                            assayed_target        readout_kind  measurement
0  CCC1(C2=NCCN2)Cc2ccccc2O1 (stereo not shown) [Efaroxan hydrochloride]  SARS-CoV-2 3CLpro (Severe acute respiratory syndrome coronavirus 2)  inhibition at 5 µM        2.34%

Noted inhibition at 5 µM for O=C(NCCNCC(O)COc1ccc(O)cc1)N1CCOCC1 (stereo not shown) [Xamoterol hemifumarate] , tested on SARS-CoV-2 3CLpro (Severe acute respiratory syndrome coronavirus 2): 1.09%

With SARS-CoV-2 3CLpro (Severe acute respiratory syndrome coronavirus 2) as the test system, N[C@@H](Cc1c[nH]c2ccccc12)C(=O)O [L-Tryptophan] showed inhibition at 5 µM of 2.12%

// inhibition at 5 µM (SARS-CoV-2 3CLpro (Severe acute respiratory syndrome coronavirus 2)) for C[N+]1(C)[C@@H]2C[C@@H](OC(=O)[C@H](CO)c3ccccc3)C[C@H]1[C@@H]1O[C@@H]12 [(-)-Scopolamine methyl bromide] = 0.833%

Simply: C=C(C)[C@H]1Cc2c(ccc3c2O[C@@H]2COc4cc(OC)c(OC)cc4[C@@H]2C3=O)O1 [Rotenone] , SARS-CoV-2 3CLpro (Severe acute respiratory syndrome coronavirus 2), inhibition at 5 µM = 2.43%

Form field, inhibition at 5 µM with SARS-CoV-2 3CLpro (Severe acute respiratory syndrome coronavirus 2), item CN(C)CCCN1c2ccccc2Sc2ccc(C(F)(F)F)cc21 [Triflupromazine hydrochloride] : 1.65%

Known value: SARS-CoV-2 3CLpro (Severe acute respiratory syndrome coronavirus 2) inhibition at 5 µM of the compound NC(N)=NCCCCN=C(N)N [Arcaine sulfate] equals 1.59%

For NCCc1c[nH]c2ccccc12 [Tryptamine hydrochloride] on SARS-CoV-2 3CLpro (Severe acute respiratory syndrome coronavirus 2), measured inhibition at 5 µM was 0.957%

Entry CN/C(=N\c1ccc(C2=NNC(=O)CC2C)cc1)NC#N (stereo not shown) [SKF 94836] , tested on SARS-CoV-2 3CLpro (Severe acute respiratory syndrome coronavirus 2), has a reported inhibition at 5 µM of 1.39%

###

assayed_target: SARS-CoV-2 3CLpro (Severe acute respiratory syndrome coronavirus 2, UniProt P0DTD1)
test_summary: biochemical
Type: biochemical
Parameters: unit not given here
test_conditions: sheet LOPAC_screen_w_protease; LOPAC1280 primary screen at 5 µM, with protease; replicate 2
readout_kind: Replicate_2
Output: the number by itself.

                                   compound  readout_kind  measurement
0                COc1ccc2[nH]c3c(c2c1)CCNC3   Replicate_2       0.3889
1  CCCCCCCCCC[Si](C)(C)CCC(=O)NC(Cc1ccc(C)cc1)c1ccccc1 (stereo not drawn) [Sandoz 58-035]   Replicate_2       0.2774
2  Cl.O=C(O)Cc1c[nH]cn1 [Imidazole-4-acetic acid hydrochloride]   Replicate_2      -0.6064

Switching to the query record.
Looking up CC1=NN=C(c2ccc(N)cc2)c2cc3c(cc2C1)OCO3.Cl [GYKI 52466 hydrochloride] , I see its Replicate_2 listed as -2.56
